Target: Trp-p8 (Homo sapiens)
Construct: expressed in transfected cells; host or cells: 293 and PC3 cells expressing Trp-p8 (non-expressing controls: 293, PC3, PC3/neo)
Sequence (Q7Z2W7 whole entry): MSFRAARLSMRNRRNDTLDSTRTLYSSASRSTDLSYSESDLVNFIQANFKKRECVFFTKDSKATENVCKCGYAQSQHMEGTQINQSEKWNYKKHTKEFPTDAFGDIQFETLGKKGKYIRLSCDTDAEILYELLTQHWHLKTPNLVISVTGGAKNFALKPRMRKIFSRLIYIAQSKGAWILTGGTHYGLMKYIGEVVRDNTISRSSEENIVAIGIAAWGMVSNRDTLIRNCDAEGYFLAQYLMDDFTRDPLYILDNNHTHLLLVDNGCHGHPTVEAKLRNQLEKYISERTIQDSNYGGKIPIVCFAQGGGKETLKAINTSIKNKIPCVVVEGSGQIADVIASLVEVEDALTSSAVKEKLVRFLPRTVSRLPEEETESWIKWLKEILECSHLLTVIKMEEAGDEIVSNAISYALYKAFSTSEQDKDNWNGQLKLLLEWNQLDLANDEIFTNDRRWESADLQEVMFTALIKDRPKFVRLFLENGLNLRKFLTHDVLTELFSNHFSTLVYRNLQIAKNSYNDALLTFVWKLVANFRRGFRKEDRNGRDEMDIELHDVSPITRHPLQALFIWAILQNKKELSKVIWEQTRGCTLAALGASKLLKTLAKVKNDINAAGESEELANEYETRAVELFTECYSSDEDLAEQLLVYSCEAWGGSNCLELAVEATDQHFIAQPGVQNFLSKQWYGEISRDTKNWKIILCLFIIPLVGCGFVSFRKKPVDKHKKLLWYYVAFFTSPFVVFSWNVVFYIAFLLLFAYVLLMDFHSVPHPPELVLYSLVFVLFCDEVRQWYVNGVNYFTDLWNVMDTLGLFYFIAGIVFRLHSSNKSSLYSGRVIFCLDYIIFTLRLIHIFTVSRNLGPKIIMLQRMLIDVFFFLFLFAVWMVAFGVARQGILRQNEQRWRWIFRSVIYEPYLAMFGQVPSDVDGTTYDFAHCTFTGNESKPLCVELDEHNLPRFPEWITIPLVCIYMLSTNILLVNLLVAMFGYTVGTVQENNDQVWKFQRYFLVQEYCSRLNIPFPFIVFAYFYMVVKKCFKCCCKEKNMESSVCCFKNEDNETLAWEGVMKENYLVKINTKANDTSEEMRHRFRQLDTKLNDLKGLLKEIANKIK
Experiment: Calcium ion uptake / flux (FLIPR) in cells expressing Trp-p8
Format: cell-based
Conditions: maximum calcium ion flux at 10 microM
Property: Peak (FLIPR); scope: individual compounds
measured.metric: Peak (FLIPR)

                                    compound           assay_target  assay_result
 0  CC1CCC(C(C)C)C(C(=O)NC(C)(C)C)C1 (stereo not shown)  Trp-p8 (Homo sapiens)        25,100
 1                   CNC(=O)C(C)(C(C)C)C(C)C  Trp-p8 (Homo sapiens)         5,000
 2  COC(=O)CNC(=O)C1CC(C)CCC1C(C)C (stereo not shown)  Trp-p8 (Homo sapiens)        25,000
 3  CCC(C)NC(=O)C1CC(C)CCC1C(C)C (stereo not shown)  Trp-p8 (Homo sapiens)        23,300
 4  CC1CCC(C(C)C)C(C(=O)OCCO)C1 (stereo not shown)  Trp-p8 (Homo sapiens)        17,000
 5  CC1CCC(C(C)C)C(C(=O)O)C1 (stereo not shown)  Trp-p8 (Homo sapiens)         9,600
 6  COc1ccc(NC(=O)C2CC(C)CCC2C(C)C)cc1 (stereo not shown)  Trp-p8 (Homo sapiens)        31,000
 7  CC1CCC(C(C)C)C(C(=O)OCCOCCO)C1 (stereo not shown)  Trp-p8 (Homo sapiens)        17,500
 8  CCOC(=O)CNC(=O)C1CC(C)CCC1C(C)C (stereo not shown)  Trp-p8 (Homo sapiens)        29,000
 9  O=C1NC(c2cccc([N+](=O)[O-])c2)=CCN1c1ccccc1O [Icilin, reference compound]  Trp-p8 (Homo sapiens)        20,000
10  CCNC(=O)C1CC(C)CCC1C(C)C (stereo not shown)  Trp-p8 (Homo sapiens)        25,000
11  CCCCCCP(=O)(C(C)CC)C(C)CC (stereo not shown)  Trp-p8 (Homo sapiens)        22,000
12  CCCCCCCP(=O)(C(C)CC)C(C)CC (stereo not shown)  Trp-p8 (Homo sapiens)        31,000
13  CCCCCP(=O)(C(C)CC)C(C)CC (stereo not shown)  Trp-p8 (Homo sapiens)        29,000
14  CC1CCC(C(C)C)C(C(=O)NC(C)(C)CO)C1 (stereo not shown)  Trp-p8 (Homo sapiens)        25,100
15  CC1CCC(C(C)C)C(C(=O)NC(C)C)C1 (stereo not shown)  Trp-p8 (Homo sapiens)        25,100

---

System: 293/Trp-p8.clone 10
Experiment: IC50 on 293/Trp-p8.clone 10
Assay type: cell-based, human
Details: Homo sapiens; read-out: IC50 293/Trp-p8.c10
pIC50: −log10 of the molar value.
measured.metric: pIC50

                                   compound         assay_target  measured_metric  assay_result
0  CC(C)[C@@H]1CC[C@@H](C)C[C@H]1C(=O)Nc1ccccc1  293/Trp-p8.clone 10            pIC50          5.49
1  CC1CCC(C(C)C)C(C(=O)Nc2ccc3c(c2)CCC3)C1 (stereo not drawn)  293/Trp-p8.clone 10            pIC50          5.87
2  CC1CCC(C(C)C)C(C(=O)Nc2ccc(N3CCOCC3)cc2)C1 (stereo not drawn)  293/Trp-p8.clone 10            pIC50          5.89
3  CC(C)[C@@H]1CC[C@@H](C)C[C@H]1C(=O)Nc1cccc(F)c1  293/Trp-p8.clone 10            pIC50          5.20
4  CCCc1ccc(NC(=O)[C@@H]2C[C@H](C)CC[C@H]2C(C)C)cc1  293/Trp-p8.clone 10            pIC50          5.25
5  CCc1ccc(NC(=O)[C@@H]2C[C@H](C)CC[C@H]2C(C)C)cc1  293/Trp-p8.clone 10            pIC50          6.14
6  COc1ccc(NC(=O)[C@@H]2C[C@H](C)CC[C@H]2C(C)C)cc1F  293/Trp-p8.clone 10            pIC50          6.10
7  CCC(C)c1ccc(NC(=O)[C@@H]2C[C@H](C)CC[C@H]2C(C)C)cc1 (stereo partly drawn)  293/Trp-p8.clone 10            pIC50          5.44
8  Cc1cc(NC(=O)[C@@H]2C[C@H](C)CC[C@H]2C(C)C)ccc1C(C)C  293/Trp-p8.clone 10            pIC50          5.30
